Cited source: patent US20260000676A1

# target: ER (Homo sapiens (Human))
# assay_protocol: In-cell western (ICW) ER degradation assay in T47D cells
# Type: cell-based
# condition_label: ER degradation, 16 hrs
value_kind: DC50

Example entries and their recorded answers appear below.
molecule="O=C1CC[C@@H](N2Cc3cc4c(cc3C2=O)OC[C@H]2CN(CC3CCC5(CC3)CN(c3ccc([C@@H]6c7ccc(O)cc7OC[C@@H]6c6ccccc6)cc3)C5)CCN42)C(=O)N1 [Compound A119]" target="ER (Homo sapiens (Human))" observed_value="1 to 10 nM"
molecule="O=C1CC[C@@H](N2Cc3c(ccc4c3OC[C@@H]3CN(CC5COC6(CCN(c7ccc([C@@H]8c9ccc(O)cc9OC[C@@H]8c8ccccc8)cc7F)CC6)C5)CCN43)C2=O)C(=O)N1 (single isomer, unassigned) [Compound A158]" target="ER (Homo sapiens (Human))" observed_value="< 1 nM"

Just so you know, measured DC50 for COc1cc(C(=O)NC2CCC(=O)NC2=O)ncc1N1CCN(CC2CC3(CCN(c4ccc([C@H]5c6ccc(O)cc6OC[C@H]5c5ccccc5)cc4)CC3)C2)CC1 (single isomer, unassigned) [Compound A116] came out at < 1 nM

Lab note: COc1cc(N2CCC(CN3CCN4c5ccc6c(c5OC[C@H]4C3)CN(C3CCC(=O)NC3=O)C6=O)CC2)ccc1[C@@H]1c2ccc(O)cc2OC[C@@H]1c1ccccc1 (single isomer, unassigned) [Compound A77] gave DC50 of < 1 nM

The measured DC50 associated with O=C1CCC(N2Cc3cc4c(cc3C2=O)OCC42CCN(CC3CC4(CCN(c5ccc([C@@H]6c7ccc(O)cc7OC[C@@H]6c6ccccc6)cc5)CC4)C3)CC2)C(=O)N1 (stereo partly shown) [Compound A71] reads < 1 nM

O=C1CCC(N2Cc3cc4c(cc3C2=O)OCC42CCN(CC3CCC4(CC3)CN(c3ccc([C@H]5c6ccc(O)cc6OC[C@H]5c5ccccc5)cc3)C4)CC2)C(=O)N1 (stereo partly shown) [Compound A99] has a reported DC50 of < 1 nM

# molecule O=C1CCC(N2Cc3cc(N4CCN(CC5CC6(CCN(c7ccc([C@H]8c9ccc(O)cc9OC[C@H]8c8ccccc8)cn7)CC6)C5)CC4)ccc3C2=O)C(=O)N1 (stereo partly shown) [Compound A98] ; its DC50 = < 1 nM

Field DC50 (entry O=C1CCC(NC(=O)c2ccc3c(n2)OC[C@H]2CN(CC4CC5(CCN(c6ccc([C@@H]7c8ccc(O)cc8OC[C@@H]7c7ccccc7)cc6)CC5)C4)CCN32)C(=O)N1 (stereo partly shown) [Compound A93] ) reads < 1 nM

Input O=C1CCN(c2ccc(N3CCN(CC4CC5(CCN(c6ccc([C@@H]7c8ccc(O)cc8OC[C@@H]7c7ccccc7)cc6)CC5)C4)CC3)cc2)C(=O)N1 (single isomer, unassigned) [Compound A83] . Output DC50: > 100 nM

Summary for this molecule, O=C1CCC(Nc2ccc(N3CCN(CC4CC5(CCN(c6ccc([C@H]7c8ccc(O)cc8OC[C@H]7c7ccccc7)cc6)CC5)C4)CC3)c(F)c2)C(=O)N1 (single isomer, unassigned) [Compound A51] : DC50 is < 1 nM

---

Below, each entry is listed alongside its reported Dmax.
# target: UniProt:P03372
# assay_protocol: In-cell western (ICW) ER degradation assay in MCF-7 cells
# Assay type: cell-based
# condition_label: MCF7, maximal ER degradation, MCF7, 16 hrs
Counter-ions that a name gives are not always drawn.

Would you please look over these solved cases?
compound="O=C1CCC(N2Cc3cc4c(cc3C2=O)CN(C(=O)CN2CCC3(CC2)CN(c2ccc([C@@H]5c6ccc(O)cc6OC[C@@H]5c5ccccc5)cc2)C3)C4)C(=O)N1 (some centres unmarked) [Compound A49]" target=UniProt:P03372 observed_value="50 to 75%"
compound="O=C1CCC(N2C(=O)c3cc4c(cc3C2=O)CN(C(=O)CN2CCC3(CC2)CCN(c2ccc([C@H]5c6ccc(O)cc6OC[C@H]5c5ccccc5)cc2)CC3)C4)C(=O)N1 (single isomer, unassigned) [Compound A54, formate]" target=UniProt:P03372 observed_value="25 to 50%"
compound="O=C1CC[C@@H](Nc2ccc(C3CCN(CC4CCC5(CC4)CN(c4ccc([C@@H]6c7ccc(O)cc7OC[C@@H]6c6ccccc6)cc4)C5)CC3)cc2)C(=O)N1 (single isomer, unassigned) [Compound A141]" target=UniProt:P03372 observed_value="50 to 75%"
compound="O=C1CCC(N2Cc3c(ccc4c3OC[C@H]3CN(CC5CCN(c6ncc([C@H]7c8ccc(O)cc8OC[C@H]7c7ccccc7)cn6)CC5)CCN43)C2=O)C(=O)N1 (single isomer, unassigned) [Compound A35]" target=UniProt:P03372 observed_value="25 to 50%"
compound="O=C1CCC(N2Cc3c(ccc4c3OC[C@@H]3CN(CC5CCN(c6ccc([C@@H]7c8ccc(O)cc8OC[C@@H]7c7ccccc7)cc6F)CC5)CCN43)C2=O)C(=O)N1 (single isomer, unassigned) [Compound A6]" target=UniProt:P03372 observed_value="50 to 75%"

// field: Dmax; key: O=C1CCC(N2Cc3c(ccc4c3OC[C@H]3CN(CC5CCN(c6ccc([C@H]7c8ccc(O)cc8OC[C@H]7c7ccccc7)cn6)CC5)CCN43)C2=O)C(=O)N1 (single isomer, unassigned) [Compound A64] ; value = 25 to 50%

Entry COc1cc(N2CCC(CN3CCN4c5ccc6c(c5OC[C@H]4C3)CN(C3CCC(=O)NC3=O)C6=O)CC2)c(F)cc1[C@H]1c2ccc(O)cc2OC[C@H]1c1ccccc1 (some centres unmarked) [Compound A105] ; Dmax = 25 to 50%

The reported Dmax of the compound O=C1CC[C@@H](Nc2ccc(C3CCN(C[C@@H]4COC5(CCN(c6ccc([C@@H]7c8ccc(O)cc8OC[C@@H]7c7ccccc7)cc6)CC5)C4)CC3)c(F)c2)C(=O)N1 (single isomer, unassigned) [Compound A165] was 25 to 50%

The compound listed as O=C1CCC(N2Cc3cc4c(cc3C2=O)CN(C(=O)CN2CCC3(CC2)CCN(c2ccc([C@@H]5c6ccc(O)cc6OC[C@@H]5c5ccccc5)cc2)CC3)C4)C(=O)N1 (single isomer, unassigned) [Compound A42] shows Dmax equal to < 25%

The compound identified as O=C1CC[C@@H](N2Cc3c(ccc4c3OC[C@@H]3CN(C[C@@H]5COC6(CCN(c7ccc([C@H]8c9ccc(O)cc9OC[C@H]8c8ccccc8)cc7F)CC6)C5)CCN43)C2=O)C(=O)N1 [Compound A155] registered its Dmax at < 25%

Reported Dmax ( O=C1CC[C@H](NC(=O)c2ccc3c(n2)OC[C@H]2CN(C[C@@H]4COC5(CCN(c6ccc([C@@H]7c8ccc(O)cc8OC[C@@H]7c7ccccc7)cc6)CC5)C4)CCN32)C(=O)N1 [Compound A148] ) = 50 to 75%

---

Entries annotated with measured pIC50
# target: CRBN/DDB1 (Homo sapiens (Human))
# Sequence (Q96SW2 whole entry): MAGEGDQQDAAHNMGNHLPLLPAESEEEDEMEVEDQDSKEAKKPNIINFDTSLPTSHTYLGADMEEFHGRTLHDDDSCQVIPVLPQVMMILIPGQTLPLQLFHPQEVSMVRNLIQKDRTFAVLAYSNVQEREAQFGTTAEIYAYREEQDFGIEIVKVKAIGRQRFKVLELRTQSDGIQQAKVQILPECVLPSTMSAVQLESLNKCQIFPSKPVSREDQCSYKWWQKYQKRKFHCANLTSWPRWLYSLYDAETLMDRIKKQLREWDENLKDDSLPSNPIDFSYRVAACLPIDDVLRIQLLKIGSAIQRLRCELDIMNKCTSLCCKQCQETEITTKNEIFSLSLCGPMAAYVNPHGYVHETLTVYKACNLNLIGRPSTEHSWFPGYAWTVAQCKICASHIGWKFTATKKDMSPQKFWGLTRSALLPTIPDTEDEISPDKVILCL
# Sequence (Q16531 whole entry partner): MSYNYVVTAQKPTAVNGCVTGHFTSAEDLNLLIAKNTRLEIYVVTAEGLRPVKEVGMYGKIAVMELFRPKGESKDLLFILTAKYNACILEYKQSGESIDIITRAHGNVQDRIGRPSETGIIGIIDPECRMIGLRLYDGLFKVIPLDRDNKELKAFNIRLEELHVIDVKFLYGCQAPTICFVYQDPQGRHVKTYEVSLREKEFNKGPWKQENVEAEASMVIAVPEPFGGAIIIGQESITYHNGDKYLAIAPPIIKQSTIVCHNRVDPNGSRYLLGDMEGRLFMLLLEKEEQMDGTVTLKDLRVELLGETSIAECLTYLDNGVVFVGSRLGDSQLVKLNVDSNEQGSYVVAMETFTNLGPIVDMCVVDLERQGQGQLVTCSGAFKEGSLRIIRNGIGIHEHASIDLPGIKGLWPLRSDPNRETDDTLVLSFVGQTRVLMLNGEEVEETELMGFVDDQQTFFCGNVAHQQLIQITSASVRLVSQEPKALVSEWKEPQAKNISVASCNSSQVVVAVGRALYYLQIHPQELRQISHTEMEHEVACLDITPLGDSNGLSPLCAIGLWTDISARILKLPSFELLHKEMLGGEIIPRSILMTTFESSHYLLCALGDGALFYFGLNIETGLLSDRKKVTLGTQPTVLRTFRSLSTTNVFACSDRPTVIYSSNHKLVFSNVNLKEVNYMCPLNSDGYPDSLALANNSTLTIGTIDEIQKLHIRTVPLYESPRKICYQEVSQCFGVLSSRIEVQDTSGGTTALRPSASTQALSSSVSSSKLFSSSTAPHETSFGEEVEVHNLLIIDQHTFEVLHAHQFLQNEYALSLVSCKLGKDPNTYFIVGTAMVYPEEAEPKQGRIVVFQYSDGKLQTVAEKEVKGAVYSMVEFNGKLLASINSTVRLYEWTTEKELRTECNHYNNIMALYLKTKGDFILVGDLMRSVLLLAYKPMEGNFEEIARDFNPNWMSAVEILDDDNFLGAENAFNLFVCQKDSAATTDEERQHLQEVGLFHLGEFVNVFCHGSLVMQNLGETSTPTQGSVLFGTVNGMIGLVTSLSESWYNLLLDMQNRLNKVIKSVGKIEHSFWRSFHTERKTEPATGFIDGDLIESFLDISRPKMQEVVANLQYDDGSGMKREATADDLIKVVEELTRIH
# assay_protocol: HTRF binding assay to CRBN/DDB1
# condition_label: read-out: CRBN HTRF IC50
# Protocol: The binding potency was determined using HTRF assay technology (Perkin Elmer). Compounds were serially diluted in DMSO and 0.2 μL volume was transferred to white 384-well plate.
pIC50: −log10 of the molar value.

compound="O=C1CC[C@@H](N2Cc3cc4c(cc3C2=O)OC[C@H]2CN(CC3CC5(CCN(c6ccc([C@@H]7c8ccc(O)cc8OC[C@@H]7c7ccccc7)cc6)CC5)C3)CCN42)C(=O)N1 [Compound A95]" observed_value="5.30 to 6.30"
compound="O=C1CC[C@@H](N2Cc3c(ccc4c3OC[C@@H]3CN(C[C@H]5COC6(CCN(c7ccc([C@H]8c9ccc(O)cc9OC[C@H]8c8ccccc8)cc7)CC6)C5)CCN43)C2=O)C(=O)N1 [Compound A133]" observed_value="> 7.30"
compound="O=C1CCC(N2Cc3cc4c(cc3C2=O)CN(C(=O)CN2CC3(CCN(c5ccc([C@H]6c7ccc(O)cc7OC[C@H]6c6ccccc6)cc5)CC3)C2)C4)C(=O)N1 (single isomer, unassigned) [Compound A45]" observed_value="6.30 to 7.30"
compound="O=C1CCC(N2Cc3c(ccc4c3OCC43CCN(CC4CC5(CCN(c6ccc([C@@H]7c8ccc(O)cc8OC[C@@H]7c7ccccc7)cc6)CC5)C4)CC3)C2=O)C(=O)N1 (some centres unmarked) [Compound A113]" observed_value="> 7.30"

Item: COc1cc(N2CCC(CN3CCC4(CC3)COc3c4ccc4c3CN(C3CCC(=O)NC3=O)C4=O)CC2)ccc1[C@H]1c2ccc(O)cc2OC[C@H]1c1ccccc1 (some centres unmarked) [Compound A135] | System: CRBN/DDB1 (Homo sapiens (Human)) | pIC50: > 7.30

---

# target: ER (Homo sapiens (Human), UniProt P03372)
# Sequence (P03372 whole entry): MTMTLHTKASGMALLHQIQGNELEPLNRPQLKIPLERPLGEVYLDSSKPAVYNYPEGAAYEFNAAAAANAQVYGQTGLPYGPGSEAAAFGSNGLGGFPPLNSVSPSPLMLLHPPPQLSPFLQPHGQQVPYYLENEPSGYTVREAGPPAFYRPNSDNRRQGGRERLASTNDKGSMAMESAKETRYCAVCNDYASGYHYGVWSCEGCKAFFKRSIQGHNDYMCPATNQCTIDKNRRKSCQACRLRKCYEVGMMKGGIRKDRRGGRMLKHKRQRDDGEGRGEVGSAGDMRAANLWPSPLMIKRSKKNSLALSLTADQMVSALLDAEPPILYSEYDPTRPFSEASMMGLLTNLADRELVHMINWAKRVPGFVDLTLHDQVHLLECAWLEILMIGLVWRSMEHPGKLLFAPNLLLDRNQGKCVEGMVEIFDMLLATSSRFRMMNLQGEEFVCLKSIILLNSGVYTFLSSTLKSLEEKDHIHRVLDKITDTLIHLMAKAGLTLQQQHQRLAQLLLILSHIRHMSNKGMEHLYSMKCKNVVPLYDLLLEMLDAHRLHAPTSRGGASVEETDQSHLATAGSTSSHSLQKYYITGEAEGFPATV
# assay_protocol: In-cell western (ICW) ER degradation assay in T47D cells
# Type: cell-based
# condition_label: maximal ER degradation, 16 hrs
Where a name gives a salt, the structure may show the parent alone.
Measured Dmax, listed per entry for reference.

Solved entries (count: 3):
compound="COc1cc(N2CCC(CN3CCC4(CC3)COc3c4ccc4c3CN(C3CCC(=O)NC3=O)C4=O)CC2)ccc1[C@H]1c2ccc(O)cc2OC[C@H]1c1ccccc1 (stereo partly shown) [Compound A135]" observed_value="25 to 50%"
compound="O=C1CC[C@@H](N2Cc3c(ccc4c3OC[C@H]3CN(CC5CC6(CCN(c7ccc([C@@H]8c9ccc(O)cc9OC[C@@H]8c8ccccc8)cc7)CC6)C5)CCN43)C2=O)C(=O)N1 (single isomer, unassigned) [Compound A89]" observed_value="≥ 75%"
compound="O=C1CCC(N2C(=O)c3cc4c(cc3C2=O)CN(C(=O)CN2CC3(CCN(c5ccc([C@H]6c7ccc(O)cc7OC[C@H]6c6ccccc6)cc5)CC3)C2)C4)C(=O)N1 (single isomer, unassigned) [Compound A55, formate]" observed_value="< 25%"

Record O=C1CC[C@@H](N2Cc3cc4c(cc3C2=O)OCC42CCN(CC3CCC4(CC3)CN(c3ccc([C@H]5c6ccc(O)cc6OC[C@H]5c5ccccc5)cc3)C4)CC2)C(=O)N1 [Compound A153] , field Dmax: ≥ 75%
